Ref: PubChem BioAssay (NCI)

Measured TGI, listed per entry.
# Tested on: U251 CNS
# PROCEDURE_SUMMARY: NCI tumour cell line growth inhibition, 48 h

{"COMPOUND": "CC12CCCC(C(=O)O)(C1)[C@H](C(C)(C)C(=O)O)CC2 (stereo partly specified)", "TGI": "> 100 µM"}
{"COMPOUND": "CC(=O)OC1CC(O)C23COC(O)C1(C)C2CC(O)C1(C)C3C(=O)C(O)C2(C)C(c3ccoc3)CC3OC321 (stereo unspecified)", "TGI": "> 100 µM"}
{"COMPOUND": "COC(=O)c1ccccc1/C=C1\\Cc2c(C)c3c(c(C)c2C1=O)CCC3", "TGI": "> 100 µM"}
{"COMPOUND": "Cc1nc2ccccc2c(=O)n1NC(=O)c1ccccn1", "TGI": "> 100 µM"}
{"COMPOUND": "CC(=O)C(C(=O)c1ccc(C)cc1)[C@@H]1OC(C)(C)O[C@@H]1[C@H]1COC(C)(C)O1 (stereo partly specified)", "TGI": "18.5 µM"}
{"COMPOUND": "COC(=O)c1cc(Br)c(Br)n1C", "TGI": "> 100 µM"}

So what does the record say about TGI for CCOC(=O)Sc1ncnc2nc[nH]c12 ?
> 100 µM

Let us now turn to CCN(CC)c1ccc(C(=N)c2ccc(N(CC)CC)cc2)cc1
2.16 µM

Next entry: O=C1c2ccccc2-c2nnc(-c3ccc([N+](=O)[O-])cc3)cc21
> 10 µM

Proceed to Cc1ccc(/C(=C/C=C(C#N)C#N)Sc2ccc(Cl)cc2)cc1
14.8 µM

Please give the result for COC(=O)Nc1nc2ccc(Oc3ccc(NC(=O)Nc4ccccc4)cc3)cc2[nH]1 too.
6.6 µM
